# target system: FAAH (Rattus norvegicus)
# Construct: using a solubilized liver plasma membrane extract containing FMH; from tissue; host or cells: liver plasma membrane (solubilized extract)
# Sequence (P97612 whole entry): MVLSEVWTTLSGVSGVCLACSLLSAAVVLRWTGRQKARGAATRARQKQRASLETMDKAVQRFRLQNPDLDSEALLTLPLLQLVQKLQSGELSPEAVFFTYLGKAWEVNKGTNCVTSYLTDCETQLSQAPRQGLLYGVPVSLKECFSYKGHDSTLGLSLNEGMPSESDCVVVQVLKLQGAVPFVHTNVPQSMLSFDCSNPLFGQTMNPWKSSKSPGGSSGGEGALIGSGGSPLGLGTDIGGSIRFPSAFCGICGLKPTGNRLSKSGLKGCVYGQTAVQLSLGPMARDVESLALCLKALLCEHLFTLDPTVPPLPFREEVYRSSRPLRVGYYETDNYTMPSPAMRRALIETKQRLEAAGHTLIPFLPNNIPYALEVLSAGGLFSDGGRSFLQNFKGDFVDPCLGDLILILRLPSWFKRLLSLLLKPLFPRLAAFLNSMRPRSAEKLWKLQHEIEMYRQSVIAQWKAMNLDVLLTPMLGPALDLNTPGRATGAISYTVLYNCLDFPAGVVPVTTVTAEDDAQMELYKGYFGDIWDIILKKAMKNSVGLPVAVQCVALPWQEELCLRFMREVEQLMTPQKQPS
# procedure summary: FAAH enzyme assay, hydrolysis of 14C-oleamide by solubilized liver plasma membrane extract
# Format: biochemical
# experimental context: Table 1; Dixon method, 14C-oleamide substrate, pH 9.0, 20-23° C.; read-out: Ki
Record form. Attribute: Ki. Fill in for each entry.
State the answer as a number, implicitly in nM.

GET /value?item= O=C(CCCCCCCc1ccccc1)c1nnc(-c2ccccn2)o1 &field=Ki returns 0.77

GET /value?item= O=C(CCCCCCc1ccccc1)c1nnc(-c2ccncc2)o1 &field=Ki returns 1

GET /value?item= CCCCCCCC/C=C\CCCCCCCC(=O)c1nnc(-c2ccccn2)o1 &field=Ki returns 3
